Experiment: Drug plasma half-life assay (DPH-LA) and bioavailability in rat
Assay type: in vivo
Details: male, Wistar, plasma, po; administered orally, rat (footnote of Table 2); read-out: half-life
MEASURED QUANTITY: half-life (h)
Write the answer as a number in h, unit excluded.

**Q:** Dear colleague, I am looking for the recorded half-life of the following molecule: O=C(O)[C@@H]1C[C@@H]2CCCC[C@@H]2N1 [OHI2CA, reference compound]
**A:** 4

---

Molecular target: pig alpha-2-delta receptor 2 (A2DR2) (UniProt A0A8W4FF87)
Experiment: [3H]Gabapentin scintillant proximity A2DR2 binding assay (A2DR2 SPA, Biological Method 5)
Conditions: displacement of [3H]-gabapentin
Recorded IC50 values for a group of compounds are listed next.

Before answering, review these 4 worked examples.
compound=CC(C)CN1[C@H](C(=O)O)C[C@@H]2CCCC[C@@H]21 value="≥ 10000 nM"
compound="CC1(C(=O)O)C[C@@H]2CCCC[C@@H]2N1 (mixture of isomers)" value="≥ 10000 nM"
compound="CN(C)CC(C)(C)COC(=O)C1C[C@@H]2CCCC[C@@H]2N1 (some centres unmarked)" value="1400 nM"
compound="O=C(O)[C@@H]1C[C@@H]2CCCC[C@@H]2N1 [OHI2CA, reference compound]" value="600 nM"

**Q:** For the compound CS(=O)(=O)NC(=O)[C@@H]1C[C@@H]2CCCC[C@@H]2N1 [Example E1] , what IC50 is on record?
**A:** ≥ 10000 nM

---

Molecular target: pig alpha-2-delta receptor 1 (A2DR1) (Sus scrofa, UniProt A0A287BIN3)
Sequence (A0A287BIN3 1-1109): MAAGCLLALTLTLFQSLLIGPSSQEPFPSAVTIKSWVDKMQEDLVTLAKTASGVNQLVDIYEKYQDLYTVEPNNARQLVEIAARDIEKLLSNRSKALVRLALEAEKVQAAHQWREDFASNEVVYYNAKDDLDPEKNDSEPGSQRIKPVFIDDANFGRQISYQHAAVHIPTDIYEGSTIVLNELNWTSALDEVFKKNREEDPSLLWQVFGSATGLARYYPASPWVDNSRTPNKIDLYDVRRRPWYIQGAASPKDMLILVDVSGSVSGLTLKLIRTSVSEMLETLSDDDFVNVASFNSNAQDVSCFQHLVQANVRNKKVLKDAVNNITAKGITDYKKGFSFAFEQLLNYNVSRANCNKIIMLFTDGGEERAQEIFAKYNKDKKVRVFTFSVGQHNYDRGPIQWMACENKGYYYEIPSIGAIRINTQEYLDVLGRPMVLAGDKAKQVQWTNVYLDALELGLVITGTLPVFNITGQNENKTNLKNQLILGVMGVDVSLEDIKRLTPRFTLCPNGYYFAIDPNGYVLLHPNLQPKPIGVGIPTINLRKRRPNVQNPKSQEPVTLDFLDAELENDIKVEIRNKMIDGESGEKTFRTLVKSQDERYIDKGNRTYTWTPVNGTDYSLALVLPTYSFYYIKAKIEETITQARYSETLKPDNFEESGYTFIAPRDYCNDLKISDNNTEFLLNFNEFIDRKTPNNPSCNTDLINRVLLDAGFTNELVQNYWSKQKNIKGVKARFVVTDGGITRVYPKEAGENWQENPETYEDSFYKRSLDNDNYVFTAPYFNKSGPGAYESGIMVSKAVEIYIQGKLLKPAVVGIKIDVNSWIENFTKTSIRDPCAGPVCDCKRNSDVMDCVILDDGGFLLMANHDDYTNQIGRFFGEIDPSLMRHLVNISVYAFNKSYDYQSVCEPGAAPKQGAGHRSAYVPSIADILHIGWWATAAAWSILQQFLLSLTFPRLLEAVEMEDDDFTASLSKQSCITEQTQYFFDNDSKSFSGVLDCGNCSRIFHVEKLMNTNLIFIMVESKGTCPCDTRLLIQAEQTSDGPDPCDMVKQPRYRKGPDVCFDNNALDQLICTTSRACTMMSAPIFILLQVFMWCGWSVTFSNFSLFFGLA
Assay: [3H]Gabapentin scintillant proximity A2DR1 binding assay (A2DR1 SPA, Biological Method 5)
Details: displacement of [3H]-gabapentin
pIC50: −log10 of the molar value.
MEASURED QUANTITY: pIC50

Solved cases below.
compound=CCCN1[C@H](C(=O)O)C[C@@H]2CCCC[C@@H]21 measured_quantity=pIC50 value="≤ 5.00"
compound=CN1[C@H](C(=O)O)C[C@@H]2CCCC[C@@H]21.Cl measured_quantity=pIC50 value="≤ 5.00"
compound="CCC1CCC2CC(C(=O)O)NC2C1 (stereo not shown)" measured_quantity=pIC50 value=5.89

Next, consider the following compound.
**Q:** Please look up its pIC50: CC1(C(=O)O)C[C@@H]2CCCC[C@@H]2N1 (mixture of isomers)
**A:** ≤ 5.00

---

Assay: Drug plasma half-life assay (DPH-LA) and bioavailability in rat
Type: in vivo
Conditions: male, Wistar, rat, in vivo, po, 300 mg/kg, rat plasma, PO, 300 mg/kg; read-out: Mean T1/2 (converted)
MEASURED QUANTITY: half-life
Note: state the figure and append the unit.

**Q:** Which half-life reading was recorded for the molecule `CN1[C@H](C(=O)O)C[C@@H]2CCCC[C@@H]21.Cl` ?
**A:** 11.1 h

---

Test: Drug plasma half-life assay (DPH-LA) and bioavailability in rat
Type: in vivo
Details: male, Wistar, plasma, po; administered orally, rat (footnote of Table 2); read-out: bioavailability
Protocol: Three fasted male Sprague-Dawley rats are dosed by intravenous infusion via cannula over 5 minutes of 3 mg/kg of invention compound in 1.0 mL saline solution, and the cannulas were each rinsed with 1.0 mL saline solution immediately following infusion. Animals are fed at 4 hours post dose. […] Plasma is separated from the blood and stored frozen until analyzed by conventional high performance liquid chromatography, whereby 5.0 ng/mL was the lower limit of quantitation. […]
MEASURED QUANTITY: bioavailability (%)
Lab book: enter the figure in %, no units written.

**Q:** Entry O=C(O)[C@@H]1C[C@@H]2CCCC[C@@H]2N1 [OHI2CA, reference compound] : reported bioavailability = ?
**A:** 72

---

Test: Drug plasma half-life assay (DPH-LA) and bioavailability in rat
Format: in vivo
Conditions: male, Sprague-Dawley; rat plasma, IV, 3 mg/kg; read-out: Mean T1/2 (converted)
MEASURED QUANTITY: half-life

**Q:** Which measured half-life value corresponds to O=C(O)[C@@H]1C[C@@H]2CCCC[C@@H]2N1 [OHI2CA, reference compound] ?
**A:** 241 min

---

Below, each entry is listed with its recorded IC50.
Molecular target: alpha-2-delta receptor 1 (A2DR1) (Homo sapiens)
Sequence (P54289 25-1103): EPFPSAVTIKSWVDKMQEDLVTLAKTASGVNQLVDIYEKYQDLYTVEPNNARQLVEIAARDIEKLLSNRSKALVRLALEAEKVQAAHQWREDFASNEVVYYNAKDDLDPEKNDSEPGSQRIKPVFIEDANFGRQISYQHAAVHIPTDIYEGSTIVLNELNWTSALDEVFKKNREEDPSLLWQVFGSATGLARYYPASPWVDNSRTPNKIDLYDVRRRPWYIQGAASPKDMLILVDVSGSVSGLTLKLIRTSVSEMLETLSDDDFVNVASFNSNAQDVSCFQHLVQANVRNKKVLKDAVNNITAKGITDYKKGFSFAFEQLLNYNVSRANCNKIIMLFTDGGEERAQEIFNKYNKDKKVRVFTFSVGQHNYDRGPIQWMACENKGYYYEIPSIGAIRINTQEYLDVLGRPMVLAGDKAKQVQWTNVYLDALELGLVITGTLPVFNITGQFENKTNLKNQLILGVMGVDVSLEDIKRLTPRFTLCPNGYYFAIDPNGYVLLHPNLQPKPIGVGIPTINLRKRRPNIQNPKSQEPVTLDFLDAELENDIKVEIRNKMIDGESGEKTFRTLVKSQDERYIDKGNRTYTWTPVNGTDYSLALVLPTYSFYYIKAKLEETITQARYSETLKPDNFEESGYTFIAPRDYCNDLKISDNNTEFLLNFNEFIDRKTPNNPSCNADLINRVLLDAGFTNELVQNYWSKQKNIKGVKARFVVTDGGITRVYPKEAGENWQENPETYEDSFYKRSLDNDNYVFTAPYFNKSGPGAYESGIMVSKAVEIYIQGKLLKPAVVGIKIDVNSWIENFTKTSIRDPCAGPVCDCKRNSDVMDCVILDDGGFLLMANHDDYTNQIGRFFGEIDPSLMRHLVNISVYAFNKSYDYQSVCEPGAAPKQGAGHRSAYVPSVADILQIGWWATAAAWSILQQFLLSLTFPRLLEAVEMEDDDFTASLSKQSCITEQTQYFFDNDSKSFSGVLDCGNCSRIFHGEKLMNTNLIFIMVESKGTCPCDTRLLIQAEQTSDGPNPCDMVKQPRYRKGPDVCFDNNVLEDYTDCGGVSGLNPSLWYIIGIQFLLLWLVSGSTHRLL
Assay: [3H]Gabapentin A2DR1 binding assay (filter, Biological Method 4)
Conditions: displacement of [3H]-gabapentin

Worked set:
compound="CC1CCC2NC(C(=O)O)CC2C1 (stereo not drawn)" value="0.11 µM"
compound="NC1CCC2NC(C(=O)O)CC2C1 (stereo not drawn)" value="≥ 10 µM"
compound=CN1[C@H](C(=O)NS(=O)(=O)C(F)(F)F)C[C@@H]2CCCC[C@@H]21 value="≥ 10 µM"
compound="O=C(NC1CCC2NC(C(=O)O)CC2C1)C1CCCCC1 (stereo not drawn)" value="≥ 10 µM"
compound="CC1(C(=O)O)C[C@@H]2CCCC[C@@H]2N1 (mixture of isomers)" value="2.83 µM"

**Q:** What value of measured IC50 is listed for `O=C(NS(=O)(=O)C(F)(F)F)[C@@H]1C[C@@H]2CCCC[C@@H]2N1` ?
**A:** ≥ 10 µM

---

Measured IC50 accompanies every entry in the list below.
Target: pig alpha-2-delta receptor 1 (A2DR1) (Sus scrofa)
Test: [3H]Gabapentin scintillant proximity A2DR1 binding assay (A2DR1 SPA, Biological Method 5)
Conditions: displacement of [3H]-gabapentin

compound="CC1CCC2NC(C(=O)O)CC2C1 (stereo not drawn) [Example O5]" value="2.8 µM"
compound="CS(=O)(=O)NC(=O)[C@@H]1C[C@@H]2CCCC[C@@H]2N1 [Example E1]" value="≥ 10 µM"
compound="CC(C)CN1[C@H](C(=O)O)C[C@@H]2CCCC[C@@H]21 [Example A6]" value="≥ 10 µM"

**Q:** Fill in the recorded IC50 for this compound, with pig alpha-2-delta receptor 1 (A2DR1) (Sus scrofa) as test system: COCCN1[C@H](C(=O)O)C[C@@H]2CCCC[C@@H]21 [Example A7]
**A:** ≥ 10 µM

**Q:** Another compound: CN(C)CC(C)(C)COC(=O)C1C[C@@H]2CCCC[C@@H]2N1 (stereo partly drawn) [Example Y1]
**A:** 0.29 µM

**Q:** Also CC(C)(C)C1CCC2NC(C(=O)O)CC2C1 (stereo not drawn) [Example O8] , if possible.
**A:** ≥ 10 µM
